// data source = paper PMC7718273

# experimental_details: Pharmacokinetic study in mice
# Format: in vivo, C57BL/6J mice
# assay_setup: male, C57BL/6J, plasma, po; mouse, p.o. 1 mg/kg; read-out: T1/2 (converted)
value_type: half-life (h)
Numeric only. Scale: h

**Query** Find the measured half-life of N#Cc1ccc(Cc2nc(C(=O)NCC(=O)N3CC(F)(F)C[C@H]3C#N)cs2)cc1 and report it.
**Result** 1.2

###

# experimental_details: Pharmacokinetic study in mice
# Format: in vivo, C57BL/6J mice
# assay_setup: male, C57BL/6J, plasma, po; mouse, p.o. 200 mg/kg
# Description: Mice were administered with BR103354 either p.o. […] (2 mg/kg). […] These samples were then centrifuged at 13,000 rpm for 10 min to obtain plasma. […] Samples were analyzed on an API 4500 Qtrap LC‐MS/MS system (Applied Biosystems/MDS Sciex, Toronto, Canada) coupled with Agilent 1200 HPLC (Agilent Technologies, Santa Clara, CA). Plasma concentration–time data were analyzed by non-compartmental method using the nonlinear least-squares regression program WinNonlin (Pharsight, Mountain View, CA).
value_type: Cmax
Answer as a quantity: numeral, then unit.

**Query** Find the measured Cmax of N#Cc1ccc(Cc2nc(C(=O)NCC(=O)N3CC(F)(F)C[C@H]3C#N)cs2)cc1 [BR103354] and report it.
**Result** 122 µg/mL
